# test-system: serotoninergic 5-HT6 receptor (Homo sapiens, UniProt P50406)
# Sequence (P50406 whole entry): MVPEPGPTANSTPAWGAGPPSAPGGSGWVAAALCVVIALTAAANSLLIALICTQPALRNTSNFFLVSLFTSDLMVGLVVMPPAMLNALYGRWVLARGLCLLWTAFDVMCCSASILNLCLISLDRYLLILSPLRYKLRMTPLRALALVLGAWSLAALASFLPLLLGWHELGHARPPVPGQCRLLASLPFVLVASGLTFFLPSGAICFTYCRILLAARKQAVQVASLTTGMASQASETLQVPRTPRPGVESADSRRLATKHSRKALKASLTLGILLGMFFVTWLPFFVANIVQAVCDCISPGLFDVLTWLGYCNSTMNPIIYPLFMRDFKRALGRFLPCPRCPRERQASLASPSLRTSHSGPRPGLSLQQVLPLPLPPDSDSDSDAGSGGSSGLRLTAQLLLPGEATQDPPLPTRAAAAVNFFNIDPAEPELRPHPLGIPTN
# experiment-description: Binding assay 5-HT6 (h), [3H]LSD, CHO cells
# Design: expressed in transfected cells; host or cells: CHO cells
# assay-setup: read-out: 5-HT6
measured-quantity: inhibition at 1 µM (%)
Give the value, in units of %, as a plain number.

Consider the reported inhibition at 1 µM for these compounds:
| compound | measured-quantity | measured-value |
| --- | --- | --- |
| O=S(=O)(NCCCCN1CCN(c2noc3ccccc23)CC1)c1cc2ccc(Cl)cc2s1 [Compound 288] | inhibition at 1 µM | 98 |
| O=S(=O)(NCCCCN1CCC(c2noc3cc(F)ccc23)CC1)c1ccc(F)c(F)c1 [Compound 295] | inhibition at 1 µM | 93 |
| O=S(=O)(NCCCCN1CCC(c2noc3cc(F)ccc23)CC1)c1ccc2ccccc2c1 [Compound 18] | inhibition at 1 µM | 100 |

Kindly note: serotoninergic 5-HT6 receptor (Homo sapiens, UniProt P50406), O=S(=O)(NCCCCN1CCN(c2cccc3c2OCCO3)CC1)c1cccc(Cl)c1 [Compound 390] , inhibition at 1 µM value reported: 26

Value source: patent US8822517B2
